Ref: PubChem BioAssay (NCI)

system: HOP-62 NSCLC; test: NCI-60 one-dose screen, 48 h (100 = growth as untreated, 0 = no growth, -100 = all killed); details: 10 µM unless noted
This is part of a sample that, as a whole, favours compounds with a hit. Of some 83,000 tested, about 20% had one in any assay. Calls of active or inactive are those of the source. How the source made its calls: active means growth percent below 10; inactive means the rest.
Hi there, I'd appreciate the recorded growth for every entry that follows.

CCOCCc1c(O)nc(SC)[nH]c1=O : 93.3% (inactive)

State recorded growth for all listed molecules.
1. COc1cccc2c1-c1ccccc1C2=O
2. C#C[C@@]1(O)[C@@H](CO)O[C@@H](n2cc(Cl)c3c(N)ncnc32)[C@@H]1O
3. COC(=O)/C=C/c1cc(OC(C)=O)c2c(c1)C(C(=O)OC)C(c1ccc(OC(C)=O)c(OC(C)=O)c1)O2 (stereo not drawn)
4. COc1ccc2c(c1)Oc1nc(N)c(C#N)c(N)c1C2Sc1ccc(O)cc1 (stereo not drawn)
5. Cc1ccc(CS/C(=C\c2ccc([N+](=O)[O-])cc2)C(=O)c2ccc(F)cc2)cc1

**Result**
1. 37.4% (inactive)
2. -4.82% (active)
3. 20% (inactive)
4. 94.5% (inactive)
5. 83.4% (inactive)

Could you tell me growth for each of these molecules? They are listed below.
1. C=C1C(=O)O[C@H]2[C@H]1CC/C(COC(=O)CCCCCCCCC(=O)OC/C1=C/CC[C@@]3(C)O[C@H]3[C@H]3OC(=O)C(=C)[C@@H]3CC1)=C\CC[C@@]1(C)O[C@@H]21
2. N#CCNc1ccc(C(=O)O)cc1

**Result**
["60.2% (inactive)", "98.3% (inactive)"]
